- targetDesc: 3',5'-cyclic-AMP phosphodiesterase 4A (Homo sapiens, UniProt P27815)
- Sequence (P27815 whole entry): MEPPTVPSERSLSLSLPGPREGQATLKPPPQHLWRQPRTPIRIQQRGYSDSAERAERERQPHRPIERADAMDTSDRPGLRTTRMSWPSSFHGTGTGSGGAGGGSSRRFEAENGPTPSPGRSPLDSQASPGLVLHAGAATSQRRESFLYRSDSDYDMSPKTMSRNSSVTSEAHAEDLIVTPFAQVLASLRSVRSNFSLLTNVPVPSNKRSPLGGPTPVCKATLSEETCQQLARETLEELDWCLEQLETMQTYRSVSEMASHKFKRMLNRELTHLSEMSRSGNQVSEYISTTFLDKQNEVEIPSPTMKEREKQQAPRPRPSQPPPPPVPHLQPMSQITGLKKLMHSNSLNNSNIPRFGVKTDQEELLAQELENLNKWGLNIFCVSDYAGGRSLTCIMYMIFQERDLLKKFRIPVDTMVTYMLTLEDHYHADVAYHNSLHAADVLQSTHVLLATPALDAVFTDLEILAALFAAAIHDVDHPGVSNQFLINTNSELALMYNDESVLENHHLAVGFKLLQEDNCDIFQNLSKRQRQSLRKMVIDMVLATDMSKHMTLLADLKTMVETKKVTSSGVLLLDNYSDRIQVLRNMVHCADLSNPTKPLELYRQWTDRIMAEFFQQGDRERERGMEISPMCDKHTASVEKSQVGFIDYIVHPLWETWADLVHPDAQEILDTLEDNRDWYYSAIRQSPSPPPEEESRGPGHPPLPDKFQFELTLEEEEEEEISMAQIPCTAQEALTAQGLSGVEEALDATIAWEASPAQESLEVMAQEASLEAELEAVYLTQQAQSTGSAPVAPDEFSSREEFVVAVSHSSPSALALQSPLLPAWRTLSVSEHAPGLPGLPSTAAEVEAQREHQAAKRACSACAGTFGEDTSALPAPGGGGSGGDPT
- assayName: Inhibition of Phosphodiesterase-4A (PDE4)
pIC50: −log10 of the molar value.
attributeMeasured: pIC50

A. CCC(O)(c1ccccc1)c1ccc(C(Cc2cc[n+]([O-])cc2)c2ccc(OC(F)F)c(OC(F)F)c2)cn1 (stereo not drawn)
B. O=C(c1ccccc1)c1ccc(C(Cc2cc[n+]([O-])cc2)c2ccc(OC(F)F)c(OC(F)F)c2)cn1 (stereo not drawn)
C. [O-][n+]1ccc(CC(c2ccc(C(O)c3ccccc3)nc2)c2ccc(OC(F)F)c(OC(F)F)c2)cc1 (stereo not drawn)
Problem: Which order do these items fall in when sorted by pIC50 from largest to smallest? # respond with the labels, arranged in the requested order
Solution: A, C, B
